# EXPERIMENTAL_SYSTEM: Telomerase reverse transcriptase (Homo sapiens) (UniProt O14746)
# Sequence (O14746 whole entry): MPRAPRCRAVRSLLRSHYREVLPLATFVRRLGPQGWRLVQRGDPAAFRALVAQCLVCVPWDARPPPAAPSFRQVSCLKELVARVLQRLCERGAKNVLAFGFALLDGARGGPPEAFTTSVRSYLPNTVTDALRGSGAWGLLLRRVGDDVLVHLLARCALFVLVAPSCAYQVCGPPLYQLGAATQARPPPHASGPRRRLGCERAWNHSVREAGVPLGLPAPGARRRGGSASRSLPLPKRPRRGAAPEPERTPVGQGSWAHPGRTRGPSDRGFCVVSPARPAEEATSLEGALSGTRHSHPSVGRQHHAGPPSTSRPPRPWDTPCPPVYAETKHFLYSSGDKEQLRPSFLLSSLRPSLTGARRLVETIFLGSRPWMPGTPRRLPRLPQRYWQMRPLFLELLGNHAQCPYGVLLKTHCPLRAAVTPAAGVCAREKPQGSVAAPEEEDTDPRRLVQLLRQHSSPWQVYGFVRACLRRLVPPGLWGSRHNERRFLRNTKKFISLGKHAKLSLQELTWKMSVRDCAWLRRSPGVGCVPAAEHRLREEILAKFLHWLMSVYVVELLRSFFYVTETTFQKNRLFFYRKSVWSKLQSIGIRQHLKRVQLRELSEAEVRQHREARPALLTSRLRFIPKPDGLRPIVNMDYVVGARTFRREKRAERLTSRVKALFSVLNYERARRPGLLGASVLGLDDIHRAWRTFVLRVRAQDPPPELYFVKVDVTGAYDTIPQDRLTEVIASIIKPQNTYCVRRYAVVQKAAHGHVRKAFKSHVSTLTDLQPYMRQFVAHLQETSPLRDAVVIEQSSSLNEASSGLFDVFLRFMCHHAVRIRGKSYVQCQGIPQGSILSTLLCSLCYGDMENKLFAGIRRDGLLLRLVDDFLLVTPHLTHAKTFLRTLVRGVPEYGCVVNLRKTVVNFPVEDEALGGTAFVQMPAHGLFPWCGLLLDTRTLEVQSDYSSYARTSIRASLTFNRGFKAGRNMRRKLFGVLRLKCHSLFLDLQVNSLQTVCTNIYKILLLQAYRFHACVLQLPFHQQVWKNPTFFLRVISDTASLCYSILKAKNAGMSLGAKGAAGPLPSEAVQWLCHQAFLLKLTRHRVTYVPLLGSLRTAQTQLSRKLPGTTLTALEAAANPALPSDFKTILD
# PROTOCOL: Inhibition of human telomerase after assembly using recombinant hTR and hTERT at 50 uM
Below, each entry is listed alongside its reported inhibition.

COMPOUND	EXPERIMENTAL_SYSTEM	UNIT_DESCRIPTOR	inhibition
CN1CCN(c2ccc3[nH]c(-c4ccc5[nH]c(-c6ccc(O)cc6)nc5c4)nc3c2)CC1	Telomerase reverse transcriptase (Homo sapiens) (UniProt O14746)	%	34
N=C(N)c1ccc(-c2cc3ccc(C(=N)N)cc3[nH]2)cc1	Telomerase reverse transcriptase (Homo sapiens) (UniProt O14746)	%	72
CCN(CC)CCCC(C)Nc1c2ccc(Cl)cc2nc2ccc(OC)cc12 (stereo unspecified)	Telomerase reverse transcriptase (Homo sapiens) (UniProt O14746)	%	50
Nc1ccc2cc3ccc(N)cc3nc2c1	Telomerase reverse transcriptase (Homo sapiens) (UniProt O14746)	%	90
NC[C@@H]1O[C@H](O[C@H]2[C@@H](O)[C@H](O[C@@H]3[C@@H](O)[C@H](N)C[C@H](N)[C@H]3O[C@H]3O[C@H](CO)[C@@H](O)[C@H](O)[C@H]3N)O[C@@H]2CO)[C@H](N)[C@@H](O)[C@@H]1O	Telomerase reverse transcriptase (Homo sapiens) (UniProt O14746)	%	29
NC[C@@H]1O[C@H](O[C@H]2[C@@H](O)[C@H](O[C@@H]3[C@@H](O)[C@H](N)C[C@H](N)[C@H]3O[C@H]3O[C@H](CO)[C@@H](O)C[C@H]3N)O[C@@H]2CO)[C@H](N)[C@@H](O)[C@@H]1O[C@H]1O[C@H](CO)[C@@H](O)[C@H](O)[C@@H]1O	Telomerase reverse transcriptase (Homo sapiens) (UniProt O14746)	%	12

* * *

# EXPERIMENTAL_SYSTEM: Telomerase reverse transcriptase (Homo sapiens) (UniProt O14746)
# PROTOCOL: Inhibition of human telomerase before assembly using recombinant hTR and hTERT at 50 uM
Each item that follows carries a reported inhibition.

COMPOUND	UNIT_DESCRIPTOR	inhibition
CN(C)[C@@H]1C(O)=C(C(N)=O)C(=O)[C@@]2(O)C(O)=C3C(=O)c4c(O)cccc4[C@@](C)(O)[C@H]3C[C@@H]12	%	10
NC[C@@H]1O[C@H](O[C@H]2[C@@H](O)[C@H](O[C@@H]3[C@@H](O)[C@H](N)C[C@H](N)[C@H]3O[C@H]3O[C@H](CO)[C@@H](O)C[C@H]3N)O[C@@H]2CO)[C@H](N)[C@@H](O)[C@@H]1O[C@H]1O[C@H](CO)[C@@H](O)[C@H](O)[C@@H]1O	%	50
Nc1ccc2cc3ccc(N)cc3nc2c1	%	95
Cn1cc(NC(=O)c2cc(NC(=O)c3cc(NC=O)cn3C)cn2C)cc1C(=O)NCCC(=N)N	%	10
CN[C@@H]1[C@@H](O[C@H]2O[C@H](CO)[C@@H](N)[C@H](O)[C@H]2O)OC2C[C@@H](N)[C@@H](O[C@H]3[C@H](O)[C@@H](O)[C@H](N)C[C@@H]3N)OC2[C@@H]1O (stereo not given in full)	%	30

* * *

# System: Tetrahymena thermophila
# PROTOCOL: Inhibition of telomerase after assembly using recombinant Tetraymena thermophilia TR and TERT at 50 uM
# inhibition annotations
OBSERVED_PROPERTY: inhibition (%)

COMPOUND	EXPERIMENTAL_SYSTEM	UNIT_DESCRIPTOR	RECORDED_VALUE
NC[C@@H]1O[C@H](O[C@H]2[C@@H](O)[C@H](O[C@@H]3[C@@H](O)[C@H](N)C[C@H](N)[C@H]3O[C@H]3O[C@H](CO)[C@@H](O)[C@H](O)[C@H]3N)O[C@@H]2CO)[C@H](N)[C@@H](O)[C@@H]1O	Tetrahymena thermophila	%	0
N=C(N)c1ccc(-c2cc3ccc(C(=N)N)cc3[nH]2)cc1	Tetrahymena thermophila	%	70
Nc1ccc2cc3ccc(N)cc3nc2c1	Tetrahymena thermophila	%	90
NCC[C@H](O)C(=O)N[C@@H]1C[C@H](N)[C@@H](O[C@H]2O[C@H](CN)[C@@H](O)[C@H](O)[C@H]2O)[C@H](O)[C@H]1O[C@H]1O[C@H](CO)[C@@H](O)[C@H](N)[C@H]1O	Tetrahymena thermophila	%	0
CN[C@@H]1C[C@H](N)[C@@H](O)[C@H](O[C@H]2O[C@H](CO)[C@H](O)[C@@H]3O[C@@]4(O[C@@H]23)O[C@H]([C@H](N)CO)[C@H](O)[C@H](O)[C@H]4O)[C@H]1O	Tetrahymena thermophila	%	0
CCN(CC)CCCC(C)Nc1c2ccc(Cl)cc2nc2ccc(OC)cc12 (stereo unspecified)	Tetrahymena thermophila	%	80

* * *

# Tested on: Euplotes aediculatus
# PROTOCOL: Inhibition of purified telomerase of Euplotes aediculatus at 50 uM

COMPOUND	inhibition
Nc1ccc2cc3ccc(N)cc3nc2c1	52%
NC[C@@H]1O[C@H](O[C@H]2[C@@H](O)[C@H](O[C@@H]3[C@@H](O)[C@H](N)C[C@H](N)[C@H]3O[C@H]3O[C@H](CO)[C@@H](O)C[C@H]3N)O[C@@H]2CO)[C@H](N)[C@@H](O)[C@@H]1O[C@H]1O[C@H](CO)[C@@H](O)[C@H](O)[C@@H]1O	10%
NC[C@@H]1O[C@H](O[C@H]2[C@@H](O)[C@H](O[C@@H]3[C@@H](O)[C@H](N)C[C@H](N)[C@H]3O[C@H]3O[C@H](CO)[C@@H](O)[C@H](O)[C@H]3N)O[C@@H]2CO)[C@H](N)[C@@H](O)[C@@H]1O	0%
CN1CCN(c2ccc3[nH]c(-c4ccc5[nH]c(-c6ccc(O)cc6)nc5c4)nc3c2)CC1	86%
Cn1cc(NC(=O)c2cc(NC(=O)c3cc(NC=O)cn3C)cn2C)cc1C(=O)NCCC(=N)N	75%
N=C(N)c1ccc(-c2cc3ccc(C(=N)N)cc3[nH]2)cc1	0%
CCN(CC)CCCC(C)Nc1c2ccc(Cl)cc2nc2ccc(OC)cc12 (configuration not stated)	75%
NCC[C@H](O)C(=O)N[C@@H]1C[C@H](N)[C@@H](O[C@H]2O[C@H](CN)[C@@H](O)[C@H](O)[C@H]2O)[C@H](O)[C@H]1O[C@H]1O[C@H](CO)[C@@H](O)[C@H](N)[C@H]1O	0%
CN[C@@H]1[C@H](O)[C@H](NC)[C@H]2O[C@@]3(O)C(=O)C[C@@H](C)O[C@H]3O[C@@H]2[C@H]1O	0%
CN[C@@H]1[C@@H](O[C@H]2O[C@H](CO)[C@@H](N)[C@H](O)[C@H]2O)OC2C[C@@H](N)[C@@H](O[C@H]3[C@H](O)[C@@H](O)[C@H](N)C[C@@H]3N)OC2[C@@H]1O (some centres not stated)	0%
CN[C@@H]1C[C@H](N)[C@@H](O)[C@H](O[C@H]2O[C@H](CO)[C@H](O)[C@@H]3O[C@@]4(O[C@@H]23)O[C@H]([C@H](N)CO)[C@H](O)[C@H](O)[C@H]4O)[C@H]1O	0%
CN(C)[C@@H]1C(O)=C(C(N)=O)C(=O)[C@@]2(O)C(O)=C3C(=O)c4c(O)cccc4[C@@](C)(O)[C@H]3C[C@@H]12	0%

* * *

# Tested on: Tetrahymena thermophila
# PROTOCOL: Inhibition of telomerase after assembly using recombinant Tetraymena thermophilia TR and TERT at 50 uM

MOLECULE	inhibition, %
CN1CCN(c2ccc3[nH]c(-c4ccc5[nH]c(-c6ccc(O)cc6)nc5c4)nc3c2)CC1	15
Cn1cc(NC(=O)c2cc(NC(=O)c3cc(NC=O)cn3C)cn2C)cc1C(=O)NCCC(=N)N	0
NC[C@@H]1O[C@H](O[C@H]2[C@@H](O)[C@H](O[C@@H]3[C@@H](O)[C@H](N)C[C@H](N)[C@H]3O[C@H]3O[C@H](CO)[C@@H](O)C[C@H]3N)O[C@@H]2CO)[C@H](N)[C@@H](O)[C@@H]1O[C@H]1O[C@H](CO)[C@@H](O)[C@H](O)[C@@H]1O	0
CN[C@@H]1[C@H](O)[C@H](NC)[C@H]2O[C@@]3(O)C(=O)C[C@@H](C)O[C@H]3O[C@@H]2[C@H]1O	0
CN[C@@H]1[C@@H](O[C@H]2O[C@H](CO)[C@@H](N)[C@H](O)[C@H]2O)OC2C[C@@H](N)[C@@H](O[C@H]3[C@H](O)[C@@H](O)[C@H](N)C[C@@H]3N)OC2[C@@H]1O (stereo partly specified)	0
CN(C)[C@@H]1C(O)=C(C(N)=O)C(=O)[C@@]2(O)C(O)=C3C(=O)c4c(O)cccc4[C@@](C)(O)[C@H]3C[C@@H]12	0

* * *

# Tested on: Tetrahymena thermophila
# PROTOCOL: Inhibition of telomerase before assembly using recombinant Tetraymena thermophilia TR and TERT at 50 uM

COMPOUND	inhibition
CN[C@@H]1[C@H](O)[C@H](NC)[C@H]2O[C@@]3(O)C(=O)C[C@@H](C)O[C@H]3O[C@@H]2[C@H]1O	0%
CN[C@@H]1[C@@H](O[C@H]2O[C@H](CO)[C@@H](N)[C@H](O)[C@H]2O)OC2C[C@@H](N)[C@@H](O[C@H]3[C@H](O)[C@@H](O)[C@H](N)C[C@@H]3N)OC2[C@@H]1O (some centres not stated)	0%
NC[C@@H]1O[C@H](O[C@H]2[C@@H](O)[C@H](O[C@@H]3[C@@H](O)[C@H](N)C[C@H](N)[C@H]3O[C@H]3O[C@H](CO)[C@@H](O)[C@H](O)[C@H]3N)O[C@@H]2CO)[C@H](N)[C@@H](O)[C@@H]1O	0%
CCN(CC)CCCC(C)Nc1c2ccc(Cl)cc2nc2ccc(OC)cc12 (configuration not stated)	93%
CN(C)[C@@H]1C(O)=C(C(N)=O)C(=O)[C@@]2(O)C(O)=C3C(=O)c4c(O)cccc4[C@@](C)(O)[C@H]3C[C@@H]12	0%
CN1CCN(c2ccc3[nH]c(-c4ccc5[nH]c(-c6ccc(O)cc6)nc5c4)nc3c2)CC1	50%
NC[C@@H]1O[C@H](O[C@H]2[C@@H](O)[C@H](O[C@@H]3[C@@H](O)[C@H](N)C[C@H](N)[C@H]3O[C@H]3O[C@H](CO)[C@@H](O)C[C@H]3N)O[C@@H]2CO)[C@H](N)[C@@H](O)[C@@H]1O[C@H]1O[C@H](CO)[C@@H](O)[C@H](O)[C@@H]1O	0%
Nc1ccc2cc3ccc(N)cc3nc2c1	90%
NCC[C@H](O)C(=O)N[C@@H]1C[C@H](N)[C@@H](O[C@H]2O[C@H](CN)[C@@H](O)[C@H](O)[C@H]2O)[C@H](O)[C@H]1O[C@H]1O[C@H](CO)[C@@H](O)[C@H](N)[C@H]1O	0%
Cn1cc(NC(=O)c2cc(NC(=O)c3cc(NC=O)cn3C)cn2C)cc1C(=O)NCCC(=N)N	0%
N=C(N)c1ccc(-c2cc3ccc(C(=N)N)cc3[nH]2)cc1	70%
CN[C@@H]1C[C@H](N)[C@@H](O)[C@H](O[C@H]2O[C@H](CO)[C@H](O)[C@@H]3O[C@@]4(O[C@@H]23)O[C@H]([C@H](N)CO)[C@H](O)[C@H](O)[C@H]4O)[C@H]1O	0%
